Measured Km, listed per entry.
target: PDC L293P (Pseudomonas aeruginosa, UniProt P24735, L320P); assay: Steady-state kinetics of purified β-lactamase; conditions: PDC L293P; antibiotics: determined as Ki app with nitrocefin as reporter substrate; 10 mM PBS, pH 7.4, room temperature

>  <compound>
O=C(Cc1cccs1)N[C@@H]1C(=O)N2C(C(=O)O)=C(/C=C/c3ccc([N+](=O)[O-])cc3[N+](=O)[O-])CS[C@H]12

>  <Km [µM]>
6.71

$$$$
>  <compound>
Cn1c(N)c(NC(=O)NCCN)c[n+]1CC1=C(C(=O)O)N2C(=O)[C@@H](NC(=O)/C(=N\OC(C)(C)C(=O)[O-])c3nsc(N)n3)[C@H]2SC1

>  <Km [µM]>
108

$$$$
>  <compound>
CC(C)(O/N=C(\C(=O)N[C@@H]1C(=O)N2C(C(=O)[O-])=C(C[N+]3(CCNC(=O)c4ccc(O)c(O)c4Cl)CCCC3)CS[C@H]12)c1csc(N)n1)C(=O)O

>  <Km [µM]>
2.69

$$$$
>  <compound>
CC(C)(O/N=C(\C(=O)N[C@@H]1C(=O)N2C(C(=O)[O-])=C(C[n+]3ccccc3)CS[C@H]12)c1csc(N)n1)C(=O)O

>  <Km [µM]>
2.84

$$$$
>  <compound>
CO/N=C(\C(=O)N[C@@H]1C(=O)N2C(C(=O)[O-])=C(C[N+]3(C)CCCC3)CS[C@H]12)c1csc(N)n1 [FEP, cefepime]

>  <Km [µM]>
4.58

$$$$
